- Test system: Plasmodium berghei
- ASSAY_REMARKS: Luciferase/luciferin-expressing antifolate-resistant parasites were used to infect a culture of HepG2 cells that were pre-incubated with compounds. Infected hepatocytes emit light due to the luciferase reaction. Assay results are presented as the percent inhibition of light emission compared to control. […]
- Format: functional
- MEASUREMENT_SETUP: sporozoite, read-out: LUCIFERASE INFECTION ASSAY - IC90
ENDPOINT: IC90

CCN(CC)Cc1nc(Oc2ccc(C)cc2OC)c2c(C)c(C)sc2n1; > 10 µM

Let us examine a further case.
Can you look up IC90 on Plasmodium berghei for `O=C(/C=C/c1cccs1)N1CCN(S(=O)(=O)c2c(Cl)cc(Br)cc2Cl)CC1` ?
> 10 µM
